# measured on: Alpha-2C adrenergic receptor (Homo sapiens)
# assay name: modulators of alpha2C/GIRK thallium flux, primary screen, cell-based, HEK293 alpha2C/GIRK1/2 (AID 624);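 note: slope of fluorescence ratio to pre-addition baseline per second over 15 to 24 s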
# test context: thallium flux BTC fluorescence, at 10 µM, actives lie on both sides
Label not met if slope falls below 0.006; label met in every other case.

compound: COc1ccc(OC)c2c(N)c(C#N)c(C(F)(F)C(F)(F)F)nc12
discrete label: not met

compound: COc1cccc(-c2nc(NCCN3CCOCC3)c3ccccc3n2)c1O
discrete label: not met

compound: Cc1nc(SCC(=O)c2ccccc2)c(C#N)c(-c2ccco2)c1C(=O)NCc1ccco1
discrete label: met

compound: CNC(=O)Nc1cccc(NC(=O)NC)n1
discrete label: not met

compound: COCCNc1cc(C)c(C#N)c2nc3ccccc3n12
discrete label: not met

compound: CCOC(=O)CC(=O)CSc1[nH]c(=O)cc(C)c1C#N
discrete label: not met

compound: N#CCSc1nc2sc3c(c2c(=O)n1C1CCCCC1)CCCC3
discrete label: not met

compound: c1cc2c(cc1C1=Nn3c(nnc3C3CCCCC3)SC1)OCO2
discrete label: not met

compound: c1ccc(C2Nc3ccccc3-c3nc4ccccc4n32)nc1 (configuration not stated)
discrete label: met

compound: CSc1nc2sc3c(c2c(=O)n1C1CCCCC1)CCN(C)C3
discrete label: not met

compound: CC(=O)N=c1sc(S(N)(=O)=O)nn1C
discrete label: not met

---

# measured on: Dual specificity protein phosphatase 6 (Homo sapiens)
# assay name: DUSP6 inhibitors restoring Erk phosphorylation by chemical complementation, primary imaging in DUSP6-transfected HeLa (AID 609);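 note: phospho-Erk level distribution per well compared with pooled transfected vehicle control wells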
# test context: HeLa MKP-3 transfected, phospho-Erk imaging KS statistic; at 10 µM; active compounds read high; cells stimulated with TPA for 15 min

molecule: CC(C)OC(=O)CC1=NC(=O)CS1
inhibition / %: -0.624
--
molecule: CC1(C)Cc2c(sc(NC(=O)c3ccc(Br)o3)c2C#N)CO1
inhibition / %: 7.48
--
molecule: Oc1ccccc1-c1nc(NCc2ccco2)c2ccccc2n1
inhibition / %: -7.01
--
molecule: CCN(CC)CCNC(=O)c1cc(S(C)(=O)=O)ccc1OC
inhibition / %: 1.48
--
molecule: COC(=O)CN(c1nc(C)c(Cl)c(OC)n1)S(=O)(=O)c1ccc(C)cc1
inhibition / %: -11
--
molecule: O=C(OCC#CCSc1nnc(-c2ccccc2)o1)c1cccs1
inhibition / %: 3.66
--
molecule: COc1ccc2c(c1)c(CC(=O)OCC(=O)O)c(C)n2C(=O)c1ccc(Cl)cc1
inhibition / %: 17.3
--
molecule: COc1ccc(-c2c3c([nH]c(=S)c2C#N)CCC3)cc1
inhibition / %: 2.46
--
molecule: C=CCSc1nc(C)c(CC=C)c(=O)[nH]1
inhibition / %: 11.9
--
molecule: Cc1ccc2[nH]c3c(c2c1)CCCC3C(N)=O (stereo not given)
inhibition / %: -16.8
--
molecule: COc1ccc(C(C)=O)cc1CSCCC(=O)O
inhibition / %: -5.26
--
molecule: CCCCOc1ccc(CN(C)c2ncnc(N)n2)cc1
inhibition / %: 5.57
--
molecule: COc1ccc(C2C(C#N)=C(N)Oc3n[nH]c(C)c32)cc1CSc1ccccn1 (stereo not given)
inhibition / %: -5.62
--
molecule: CCC(C)Nc1nc(-c2cccc(OC)c2O)nc2ccccc12 (stereo not given)
inhibition / %: 1.6e-07
--
molecule: Cc1ccc(C(=O)/C=C/Nc2cccc(O)c2)cc1
inhibition / %: -8.59
--
molecule: Cc1nc2n[nH]c(N)c2c2c1COC(C)(C)C2
inhibition / %: 5.57
--
molecule: O=c1c2ccccc2[nH]c(=S)n1CCN1CCC(=C(c2ccc(F)cc2)c2ccc(F)cc2)CC1
inhibition / %: -4.44
--
molecule: O=C(c1cccc(Cl)c1)N1CCN(C(=O)c2ccccc2F)CC1
inhibition / %: 1.75
--
molecule: CCOc1ccc(Br)cc1CC(=O)O
inhibition / %: 14
--
molecule: Cc1ccccc1C(=O)c1ccc2c(c1)n(C)c(=O)n2C
inhibition / %: 5.65
--
molecule: Cn1cc(C(=O)NCN2CCCCC2)c2ccccc21
inhibition / %: -5.89
--
molecule: N#Cc1c(N)n(CCOC(=O)c2cccc(Br)c2)c2nc3ccccc3nc12
inhibition / %: -1.12
--
molecule: COC(=O)c1ccccc1NC=C1C(=O)OC2(CCCCC2)OC1=O
inhibition / %: 1.42
--
molecule: O=C(NCC(F)(F)F)N1CCOCC1
inhibition / %: -13.3
--
molecule: COc1ccc(CCN2CCC(Nc3nc4ccccc4n3Cc3ccc(F)cc3)CC2)cc1
inhibition / %: 7.39

---

# assay name: inhibitors of Chlamydomonas gravitaxis, primary screen, whole organism, Chlamydomonas reinhardtii, WT vs cilia-less mutant, absorbance, 96-well (AID 463189);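 note: 0% = wild type cc124 cells in DMSO and 100% = ciliumless bld1 mutant cells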
# test context: OD600 absorbance, 2 days, at 10 µM, active compounds read high
Listed compounds paired with reported inhibition
outcome measure: inhibition (%)

compound: OC1(c2cccc(C(F)(F)F)c2)CCN(c2ncnc3c2[nH]c2ccccc23)CC1
outcome measure: inhibition
obs value: 19.3
--
compound: CC(=O)C1=C(O)C(=O)N(c2ccc(C(=O)O)cc2)C1c1ccccc1 (stereo not given)
outcome measure: inhibition
obs value: -2.45
--
compound: Cc1cc(C)n(C(=O)CNC(=O)CCc2ccccc2)n1
outcome measure: inhibition
obs value: -9.43
--
compound: CCC[C@@H]1C[C@@H](C(=O)N[C@H]([C@@H](C)O)[C@H]2O[C@H](SC)[C@H](O)[C@@H](O)C2O)N(C)C1 (stereo not given in full)
outcome measure: inhibition
obs value: 35.8
--
compound: NC(=O)c1cc(-c2ccccc2)nc(Oc2ccccc2)n1
outcome measure: inhibition
obs value: -1.45
--
compound: Fc1cnc(N2CCOCC2)nc1NCc1ccccc1
outcome measure: inhibition
obs value: 0.319
--
compound: CCOc1cccc(-c2nnc3sc(-c4cccs4)nn23)c1
outcome measure: inhibition
obs value: 18.9
--
compound: CS(=O)(=O)CCC(C(=O)n1nnc2ccccc21)N1C(=O)c2ccccc2C1=O (stereo not given)
outcome measure: inhibition
obs value: 26
--
compound: COc1ccc(C2CC(C(F)(F)F)n3ncc(C(=O)Nc4cccc(O)c4)c3N2)cc1OC (stereo not given)
outcome measure: inhibition
obs value: -4.48
--
compound: N#C/C(C(=O)N1CCOCC1)=C1/SC(Cc2ccccc2)C(=O)N1c1ccccc1 (stereo not given)
outcome measure: inhibition
obs value: -6.43

---

# measured on: Dual specificity protein phosphatase 6 (Homo sapiens)
# assay name: DUSP6 inhibitors restoring Erk phosphorylation by chemical complementation, primary imaging in DUSP6-transfected HeLa (AID 609);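 note: phospho-Erk level distribution per well compared with pooled transfected vehicle control wells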
# test context: HeLa MKP-3 transfected, phospho-Erk imaging KS statistic; at 10 µM; active compounds read high; cells stimulated with TPA for 15 min
Activity calls are given as the source filed them.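 How the source made its calls: active means compounds giving at least 50% inhibition in the cell-based MKP-3 phosphatase rescue imaging test; inactive means the rest.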

compound: COc1ccccc1NC(=O)C1=C(C)NC(SCC(=O)c2ccc(C)cc2)=C(C#N)C1c1ccco1 (configuration not stated)
inhibition: -2.07% (inactive)

compound: Cc1cc(C)n(CC(=O)n2nc(C)cc2C)n1
inhibition: 5.95% (inactive)

compound: CC1(C(=O)CSc2nc3ccccc3s2)CCC(=O)O1 (configuration not stated)
inhibition: -4.27% (inactive)

compound: N/C(CCN1CCOCC1)=N/O
inhibition: 22.7% (inactive)

compound: CCOC(=O)c1ccc(N=CC2=C(O)CC(c3ccco3)CC2=O)cc1 (configuration not stated)
inhibition: 16% (inactive)

compound: CC(=O)c1c(C)c2c(n1CCN(C)C)CCCC2
inhibition: -11.5% (inactive)

compound: CCN(CC)CCCC1(CN)OCCc2ccccc21 (configuration not stated)
inhibition: 17% (inactive)

compound: CN1CCN(C(=O)CSc2nc(-c3ccncc3)ccc2C#N)CC1
inhibition: -7.28% (inactive)

compound: CC(=O)Nc1nnc(S(N)(=O)=O)s1
inhibition: 13.3% (inactive)

compound: CCCCOc1ccc(C(=O)Nc2ccc(N3CCN(C(C)=O)CC3)cc2)cc1
inhibition: 5.95% (inactive)

compound: CCOc1ccc2c(C)nc(NC3=NC(C)(C)C=C(C)N3)nc2c1
inhibition: -9.66% (inactive)

compound: COCCCn1c2nc3ccccc3nc2c2c(=O)n(CC3CCCO3)cnc21 (configuration not stated)
inhibition: 2.92% (inactive)

---

# assay name: inhibitors of mutant huntingtin aggregation, primary screen, imaging, exon1htt(103Q)mCFP cells, high-content imaging (AID 483);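 note: compound exposure lasted 3 days before fixation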
# test context: exon1htt(103Q)mCFP cell line, aggregate imaging, at 2 µM; active compounds read high
inhibition of aggregation reference

compound: Cc1cc(Cn2ccnc2)c(C)cc1Cn1ccnc1
inhibition of aggregation [%]: 7.9
//
compound: CCCC(CCC)C(=O)OC1C[C@H]2CC[C@@H](C1)[N+]2(C)C (stereo not given in full)
inhibition of aggregation [%]: 35.6
//
compound: COc1ccc2c(c1)c(CC(=O)OCC(=O)O)c(C)n2C(=O)c1ccc(Cl)cc1
inhibition of aggregation [%]: -25.2
//
compound: N#CC1(c2ccccc2)CCC(=NO)CC1 (stereo not given)
inhibition of aggregation [%]: -8
//
compound: C[C@@H]1C[C@H]2[C@@H]3C[C@H](F)C4=CC(=O)C=C[C@]4(C)[C@@]3(F)[C@@H](O)C[C@]2(C)[C@@]1(O)C(=O)CO
inhibition of aggregation [%]: -18.8
